Listing of entries alongside the reported IC50.
Target: bacterial NAD synthetase enzyme (Bacillus subtilis)
Sequence (P08164 2-272 limits assumed): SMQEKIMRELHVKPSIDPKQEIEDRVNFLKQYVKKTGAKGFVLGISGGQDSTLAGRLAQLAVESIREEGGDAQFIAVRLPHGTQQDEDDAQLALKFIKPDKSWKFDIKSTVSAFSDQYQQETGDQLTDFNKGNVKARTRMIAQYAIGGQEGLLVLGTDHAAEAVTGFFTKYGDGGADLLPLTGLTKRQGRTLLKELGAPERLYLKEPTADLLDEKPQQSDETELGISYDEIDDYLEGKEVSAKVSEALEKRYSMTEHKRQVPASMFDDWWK
Experiment: biochemical
Format: biochemical
property-measured: IC50 (µM)

- COC(=O)c1cc2cc(OCc3ccccc3)ccc2n1CCCCCCCOC(=O)c1ccc(C[N+](C)(C)C)cc1 [Compound 1097]: 63.7
- COC(=O)c1cc2cc(OCc3ccccc3)ccc2n1CCCCCCOC(=O)c1ccc[n+](C)c1 [Compound 975]: 38
- C[N+](C)(C)c1ccc(CC(=O)OCCCCCn2ccc3cc(OCc4ccccc4)ccc32)cc1 [Compound 746]: 50
- COC(=O)c1ccc2ccn(CCCCCCCCC[n+]3ccccc3)c2c1 [Compound 214]: 30
- C[N+](C)(C)c1ccc(C(=O)OCCCCCCCc2cc3cc(Oc4ccccc4)ccc3[nH]2)cc1 [Compound 887]: 25
- C[N+](C)(C)c1ccc(C(=O)OCCCCc2cc3cc(Oc4ccccc4)ccc3[nH]2)cc1 [Compound 886]: 80
- CC(C)c1ccc2[nH]c(CCCCCCCCOC(=O)Cc3ccc[n+](C)c3)cc2c1 [Compound 936]: 60
- C[N+](C)(C)c1ccc(CC(=O)OCCCCCCCCn2ccc3cc(OCc4ccccc4)ccc32)cc1 [Compound 749]: 25
- COC(=O)c1cc2cc(OCc3ccccc3)ccc2n1CCCCC[n+]1ccccc1 [Compound 228]: 60
- C[N+](C)(C)c1ccc(CC(=O)OCCCCCCCCOc2ccc(Oc3ccccc3)cc2)cc1 [Compound 1090]: 21.2
- C[n+]1cccc(C(=O)OCCCCCCn2ccc3cc(OCc4ccccc4)ccc32)c1 [Compound 767]: 60
- C[n+]1cccc(C(=O)OCCCOc2ccc(Oc3ccccc3)cc2)c1 [Compound 1070]: 36.2
- CCCCc1oc2ccccc2c1C(=O)c1ccc(OCCCOC(=O)c2ccc[n+](C)c2)cc1 [Compound 1064]: 37.5
- C[N+](C)(C)c1ccc(CC(=O)OCCCCCCn2ccc3cc(OCc4ccccc4)ccc32)cc1 [Compound 747]: 70
- COC(=O)c1cc2cc(OCc3ccccc3)ccc2n1CCCCCCCOC(=O)c1ccc[n+](C)c1 [Compound 976]: 20
- CC(C)c1ccc2[nH]c(CCCCCCCOC(=O)c3cccc([N+](C)(C)C)c3)cc2c1 [Compound 875]: 45

====

Target: bacterial NAD synthetase enzyme (Bacillus subtilis)
Experiment: biochemical
Assay type: biochemical
Details: compound at 0.25 mM
Listing of entries alongside the reported % Inhibition.
property-measured: % Inhibition (%)

* C[n+]1cccc(CC(=O)OCCCCCCCCc2cc3ccc(C(F)(F)F)cc3[nH]2)c1 | 96.7
* C[N+](C)(C)c1cccc(C(=O)OCCCCCCCCc2cc3cc(Oc4ccccc4)ccc3[nH]2)c1 | 98.0
* C[n+]1ccc(C(=O)OCCCCCCCCc2cc3cc(Oc4ccccc4)ccc3[nH]2)cc1 | 95.5
* C[N+](C)(C)c1ccc(C(=O)OCCCCCCCCc2cc3cc(C(=O)c4ccccc4)ccc3[nH]2)cc1 | 50.9
* CC(=O)c1ccc2[nH]c(CCCCOC(=O)c3cccc([N+](C)(C)C)c3)cc2c1 | 98.3
* C[n+]1cccc(C(=O)OCCCCCCCCc2cc3cc(C(=O)c4ccccc4)ccc3[nH]2)c1 | 93.1
* C[n+]1ccc(C(=O)OCCCCCCCCc2cc3ccc(C(F)(F)F)cc3[nH]2)cc1 | 84.9
* C[N+](C)(C)c1cccc(C(=O)OCCCCc2cc3cc(C(=O)c4ccccc4)ccc3[nH]2)c1 | 96.7
* C[N+](C)(C)c1cccc(C(=O)OCCCCCCCCc2cc3ccc(C(F)(F)F)cc3[nH]2)c1 | 63.1
* C[N+](C)(C)c1ccc(C(=O)OCCCCCCCCc2cc3cc(Oc4ccccc4)ccc3[nH]2)cc1 | 99.0
* CC(=O)c1ccc2[nH]c(CCCCCCCOC(=O)Cc3ccc[n+](C)c3)cc2c1 | 98.8
* CC(=O)c1ccc2[nH]c(CCCCOC(=O)c3ccc[n+](C)c3)cc2c1 | 87.4
* CC(=O)c1ccc2[nH]c(CCCCCCCOC(=O)c3ccc([N+](C)(C)C)cc3)cc2c1 | 13.8
* C[n+]1ccc(C(=O)OCCCCc2cc3ccc(C(F)(F)F)cc3[nH]2)cc1 | 51.8
* CC(=O)c1ccc2[nH]c(CCCCOC(=O)c3cc[n+](C)cc3)cc2c1 | 20.6
* C[N+](C)(C)c1cccc(C(=O)OCCCCc2cc3cc(Oc4ccccc4)ccc3[nH]2)c1 | 81.9
* CC(C)c1ccc2[nH]c(CCCCOC(=O)Cc3ccc[n+](C)c3)cc2c1 | 98.5
* C[n+]1ccc(C(=O)OCCCCc2cc3cc(C(=O)c4ccccc4)ccc3[nH]2)cc1 | 88.5
* C[N+](C)(C)c1cccc(C(=O)OCCCCc2cc3ccc(C(F)(F)F)cc3[nH]2)c1 | 13.5
* C[n+]1cccc(C(=O)OCCCCCCCCc2cc3ccc(C(F)(F)F)cc3[nH]2)c1 | 95.7
* C[n+]1cccc(C(=O)OCCCCCCCCc2cc3cc(Oc4ccccc4)ccc3[nH]2)c1 | 98.6
* C[N+](C)(C)c1ccc(C(=O)OCCCCc2cc3cc(C(=O)c4ccccc4)ccc3[nH]2)cc1 | 95.7
* CC(=O)c1ccc2[nH]c(CCCCOC(=O)c3ccc([N+](C)(C)C)cc3)cc2c1 | 97.7
* CC(C)c1ccc2[nH]c(CCCCOC(=O)c3ccc[n+](C)c3)cc2c1 | 90.2
* C[n+]1ccc(C(=O)OCCCCc2cc3cc(Oc4ccccc4)ccc3[nH]2)cc1 | 32.8
* CC(=O)c1ccc2[nH]c(CCCCOC(=O)Cc3ccc[n+](C)c3)cc2c1 | 88.8
* C[N+](C)(C)c1ccc(C(=O)OCCCCCCCCc2cc3ccc(C(F)(F)F)cc3[nH]2)cc1 | 98.0
* C[n+]1ccc(C(=O)OCCCCCCCCc2cc3cc(C(=O)c4ccccc4)ccc3[nH]2)cc1 | 27.6
* C[n+]1cccc(C(=O)OCCCCc2cc3ccc(C(F)(F)F)cc3[nH]2)c1 | 7.6
* C[n+]1cccc(CC(=O)OCCCCc2cc3cc(Oc4ccccc4)ccc3[nH]2)c1 | 15.8
